B1: Subtilisin-chymotrypsin inhibitor-2A, P01053 (parent)
chain: MSSVEKKPEGVNTGAGDRHNLKTEWPELVGKSVEEAKKVILQDKPEAQIIVLPVGTIVTMEYRIDRVRLFVDKLDNIAQVPRVG

Variants of: B1
Conditions: Hordeum vulgare; pH 6.3; Thermal; Fluorescence; phosphate 10 mM; reversible: yes; structure 2CI2; whole UniProt chain shown
# label = Met if change of melting temperature, mutant - wild type (higher = more stable) >= -3 °C else Not met

Given the entry L52A , answer whether its change of melting temperature, mutant - wild type (higher = more stable) meets or surpasses -3 °C.
Not met

Given the entry K44A , answer whether its change of melting temperature, mutant - wild type (higher = more stable) meets or surpasses -3 °C.
Not met

Given the entry V71A , answer whether its change of melting temperature, mutant - wild type (higher = more stable) meets or surpasses -3 °C.
Not met

Given the entry T23A , answer whether its change of melting temperature, mutant - wild type (higher = more stable) meets or surpasses -3 °C.
Met

Given the entry K37A , answer whether its change of melting temperature, mutant - wild type (higher = more stable) meets or surpasses -3 °C.
Not met

Given the entry L52V , answer whether its change of melting temperature, mutant - wild type (higher = more stable) meets or surpasses -3 °C.
Met

Given the entry I77V , answer whether its change of melting temperature, mutant - wild type (higher = more stable) meets or surpasses -3 °C.
Met

Given the entry I49V , answer whether its change of melting temperature, mutant - wild type (higher = more stable) meets or surpasses -3 °C.
Not met

Given the entry I40V , answer whether its change of melting temperature, mutant - wild type (higher = more stable) meets or surpasses -3 °C.
Not met

Given the entry I50V , answer whether its change of melting temperature, mutant - wild type (higher = more stable) meets or surpasses -3 °C.
Met

Given the entry V54A , answer whether its change of melting temperature, mutant - wild type (higher = more stable) meets or surpasses -3 °C.
Met

Attribution: FireProtDB (doi:10.1021/bi00005a026)
